This collection of values is drawn from patent US20050239656A1.

A collection of compounds and their measured Growth controlling degree (%) Japanese bulrush
Test system: japanese bulrush
assay_comment: Test Example 3: paddy pot test, application under submerged conditions
Assay type: in vivo, Scirpus juncoides
details: active ingredient 250 g/ha; submerged application at 0.5 leaf stage; visually observed 14 days after application; 0 = non-treated, 100 = complete kill
Numeric answer only, unit % assumed.

CC(C)C(c1cnccc1C(F)(F)F)N(C)C(=O)COc1ccccc1F (stereo not shown)    98
CC(C)C(c1cnccc1C(F)(F)F)N(C)S(=O)(=O)c1ccc(C(C)(C)C)cc1 (stereo not shown)    0
CC(C)C(c1cnccc1C(F)(F)F)N(C)C(=O)Cc1cc(Cl)cc(Cl)c1 (stereo not shown)    20
CC(C)C(c1cnccc1C(F)(F)F)N(C)C(=O)CC(C)(C)C (stereo not shown)    98
CC(C)C(c1cnccc1C(F)(F)F)N(C)C(=O)COc1cccc(Cl)c1 (stereo not shown)    95
CCCOC(=O)N(C)C(c1cnccc1C(F)(F)F)C(C)C (stereo not shown)    95
CCc1ccc(OCC(=O)N(C)C(c2cnccc2C(F)(F)F)C(C)C)cc1 (stereo not shown)    98
CC(C)C(c1cnccc1C(F)(F)F)N(C)C(=O)CC1CCCC1 (stereo not shown)    98

Growth controlling degree (%) Japanese bulrush recorded for this compound, CC(C)CC(=O)N(C)C(c1cnccc1C(F)(F)F)C(C)C (stereo not shown) , is 95

So, CC(C)C(c1cnccc1C(F)(F)F)N(C)C(=O)Cc1ccc(Br)cc1F (racemic) ? Its Growth controlling degree (%) Japanese bulrush was 98

Lookup result for CCC(=O)N(C)C(c1cnccc1C(F)(F)F)C(C)C (stereo not shown) ; measured Growth controlling degree (%) Japanese bulrush: 99

---

Test system: velvetleaf
assay_comment: Test Example 2: soil surface treatment, upland pot test
Assay type: in vivo, Abutilon theophrasti MEDIC.
details: active ingredient 250 g/ha, observed 20th to 28th day
measured_endpoint: Growth controlling degree (%) Velvetleaf
Please give a number only; it is taken to be in %.

Here is how some molecules turned out for Growth controlling degree (%) Velvetleaf.
CC(C)CC(=O)N(C)C(c1cnccc1C(F)(F)F)C(C)C (stereo not drawn)    10
CC(C)C(c1cnccc1C(F)(F)F)N(C)C(=O)C(F)(F)F (stereo not drawn)    60
CC(C)C(c1cnccc1C(F)(F)F)N(C)C(=O)Cc1ccccc1F (stereo not drawn)    95
CC(C)C(c1cnccc1C(F)(F)F)N(C)C(=O)Cc1ccc(F)cc1 (stereo not drawn)    70
CC(C)C(c1cnccc1C(F)(F)F)N(C)C(=O)Cc1ccc(Cl)cc1 (stereo not drawn)    60

Looking up CC(=O)N(C)C(c1cnccc1C(F)(F)F)C(C)C (stereo not drawn) , I see its Growth controlling degree (%) Velvetleaf listed as 50

# Growth controlling degree (%) Velvetleaf of CC(C)C(c1cnccc1C(F)(F)F)N(C)C(=O)C1CC1 (stereo not drawn) = 70

Growth controlling degree (%) Velvetleaf recorded for this molecule, CC(C)=CC(=O)N(C)C(c1cnccc1C(F)(F)F)C(C)C (stereo not drawn) , is 60

Measured Growth controlling degree (%) Velvetleaf, CC(C)C(c1cnccc1C(F)(F)F)N(C)C(=O)CCBr (stereo not drawn) : 40

---

Tested on: redroot pigweed
assay_comment: Test Example 2: soil surface treatment, upland pot test
Format: in vivo, Amaranthus retroflexus L.
details: active ingredient 250 g/ha, observed 20th to 28th day
Parameter: Growth controlling degree (%) Redroot pigweed. Scope: all listed entries.
Reply numerically in %, unit not repeated.

Example compounds with recorded Growth controlling degree (%) Redroot pigweed:
CC(=Cc1ccccc1)C(=O)N(C)C(c1cnccc1C(F)(F)F)C(C)C (stereo not drawn) [I-206]    70
CC(C)C(c1cnccc1C(F)(F)F)N(C)C(=O)Cc1ccccc1Cl (stereo not drawn) [I-26]    70
CC(C)C(c1cnccc1C(F)(F)F)N(C)C(=O)C(Br)C(C)(C)C (stereo not drawn) [I-196]    60
CC(C)C(c1cnccc1C(F)(F)F)N(C)C(=O)Cc1ccc(Cl)cc1 (stereo not drawn) [I-23]    85
CC(C)C(c1cnccc1C(F)(F)F)N(C)C(=O)Cc1ccccc1F (stereo not drawn) [Compound I-25]    100

// Growth controlling degree (%) Redroot pigweed lookup, compound = CC(C)CC(=O)N(C)C(c1cnccc1C(F)(F)F)C(C)C (stereo not drawn) [I-193] , result: 10

CC(C)C(c1cnccc1C(F)(F)F)N(C)C(=O)C(F)=Cc1ccccc1 (stereo not drawn) [Compound I-207] has a reported Growth controlling degree (%) Redroot pigweed of 60

Entry CC(C)C(c1cnccc1C(F)(F)F)N(C)C(=O)Cc1ccc(Br)cc1F (racemic) [Compound I-137] — recorded Growth controlling degree (%) Redroot pigweed = 50

Record Cc1ccc(S(=O)(=O)N(C)C(c2cnccc2C(F)(F)F)C(C)C)cc1 (racemic) [I-130] , field Growth controlling degree (%) Redroot pigweed: 10

---

System: velvetleaf
assay_comment: Test Example 1: foliage treatment, upland pot test
Type: in vivo, Abutilon theophrasti MEDIC.
details: active ingredient 500 g/ha, observed 18th to 23rd day, 0 = non-treated, 100 = complete kill
measured_endpoint: Growth controlling degree (%) Velvetleaf
Your answer is read as %, so omit the unit and give the number.

# annotated cases, reported Growth controlling degree (%) Velvetleaf shown
CC(C)C(c1cnccc1C(F)(F)F)N(C)C(=O)CC1CCCC1 (centres unmarked)    80
CC(C)C(c1cnccc1C(F)(F)F)N(C)C(=O)COc1ccccc1 (centres unmarked)    90
CCCCC(=O)N(C)C(c1cnccc1C(F)(F)F)C(C)C (centres unmarked)    60
CC(C)C(c1cnccc1Cl)N(C)C(=O)Cc1c(F)cccc1F (centres unmarked)    80

CC(C)C(c1cnccc1C(F)(F)F)N(C)C(=O)C=Cc1ccc(Br)cc1 (centres unmarked) on velvetleaf gives Growth controlling degree (%) Velvetleaf = 95

velvetleaf assay, compound CC(C)C(c1cnccc1C(F)(F)F)N(C)C(=O)Cc1ccc(F)c(F)c1 (centres unmarked) , recorded Growth controlling degree (%) Velvetleaf = 90

---

System: velvetleaf
assay_comment: Test Example 2: soil surface treatment, upland pot test
Format: in vivo, Abutilon theophrasti MEDIC.
details: active ingredient 500 g/ha, observed 20th to 28th day
measured_endpoint: Growth controlling degree (%) Velvetleaf
Give a bare numeral; the unit % is implied.

The cases that follow already have their Growth controlling degree (%) Velvetleaf on record.
CCN(C(=O)Cc1ccccc1)C(c1cnccc1Cl)C(C)C (stereo not drawn) [Compound I-102]    0
CC(C)C(c1cnccc1C(F)(F)F)N(C)S(=O)(=O)c1ccc(F)cc1F (racemic) [I-127]    40
CC(C)C(c1cnccc1C(F)(F)F)N(C)C(=O)Cc1csc2ccccc12 (stereo not drawn) [I-192]    0
CC(C)C(c1cnccc1C(F)(F)F)N(C)C(=O)COc1cccc(F)c1 (stereo not drawn) [Compound I-242]    70
CC(C)C(c1cnccc1Cl)N(C)C(=O)Cc1c(F)cccc1F (stereo not drawn) [I-70]    0

Query CC(C)C(c1cnccc1Cl)N(C)C(=O)Cc1ccc(F)cc1 (stereo not drawn) [I-67] yields Growth controlling degree (%) Velvetleaf of 60

---

Each record here notes measured Growth controlling degree (%) Crabgrass.
System: crabgrass
assay_comment: Test Example 2: soil surface treatment, upland pot test
Format: in vivo, Digitaria sanguinalis L.
details: active ingredient 1000 g/ha, observed 20th to 28th day
Report the value in % with no unit label.

Recorded Growth controlling degree (%) Crabgrass, per entry:
COC(=O)NC(c1cnccc1C(F)(F)F)c1cccc2ccccc12 (centres unmarked) [Compound I-45]    90
CC(C)C(c1cnccc1C(F)(F)F)N(C)C(=O)Cc1ccc(Br)cc1 (centres unmarked) [I-10]    100
CCC(=O)N(C)C(c1cnccc1C(F)(F)F)c1cccc2ccccc12 (centres unmarked) [I-43]    100
CC(C)C(c1cnccc1C(F)(F)F)N(C)C(=O)Cc1c(F)cccc1F (centres unmarked) [I-13]    100
CC(C(=O)NC(c1cnccc1C(F)(F)F)C(C)C)c1ccccc1 (centres unmarked) [Compound I-11]    90
CC(C)C(c1cnccc1C(F)(F)F)N(C)C(=O)Cc1ccc(I)cc1 (centres unmarked) [I-2]    90
CC(C)C(NC(=O)Cc1ccc(Br)cc1)c1cnccc1C(F)(F)F (centres unmarked) [Compound I-8]    50
CCC(=O)N(CC)C(c1cnccc1C(F)(F)F)c1cccc2ccccc12 (centres unmarked) [I-44]    90
CC(C)C(NC(=O)Cc1c(F)cccc1F)c1cnccc1C(F)(F)F (centres unmarked) [Compound I-5]    90
CC(C)C(c1cnccc1C(F)(F)F)N(C)C(=O)Cc1cccc(Br)c1 (centres unmarked) [I-16]    100

The value of Growth controlling degree (%) Crabgrass measured for the compound CC(C)C(NC(=O)Cc1ccccc1)c1cnccc1C(F)(F)F (centres unmarked) [Compound I-3] turned out to be 90

Looking up CC(C)C(c1cnccc1C(F)(F)F)N(C)C(=O)Cc1ccccc1Br (centres unmarked) [I-15] , I found its Growth controlling degree (%) Crabgrass recorded as 100

Lab book: Growth controlling degree (%) Crabgrass of CC(C(=O)N(C)C(c1cnccc1C(F)(F)F)C(C)C)c1ccccc1 (centres unmarked) [I-12] noted as 100

Record summary for COC(=O)N(C)C(c1cnccc1C(F)(F)F)c1cccc2ccccc12 (centres unmarked) [I-46] : reported Growth controlling degree (%) Crabgrass = 90

Entry under test: CCC(=O)NC(c1cnccc1C(F)(F)F)c1cccc2ccccc12 (centres unmarked) [Compound I-42] . Its Growth controlling degree (%) Crabgrass was 90

Just so you know, measured Growth controlling degree (%) Crabgrass for CC(C)C(c1cnccc1C(F)(F)F)N(C)C(=O)Cc1ccc(Cl)cc1Cl (centres unmarked) [I-14] came out at 100

Memo: CC(C)C(c1cnccc1C(F)(F)F)N(C)C(=O)Cc1ccccc1 (centres unmarked) [I-1] , reported Growth controlling degree (%) Crabgrass: 100
